Molecular target: T1, human IL-10 receptor (hIL-10R alpha and beta chains) on HEK-Blue IL-10 reporter cells (human, UniProt Q13651 22-578; Q08334 20-325)
T1 sequence 1: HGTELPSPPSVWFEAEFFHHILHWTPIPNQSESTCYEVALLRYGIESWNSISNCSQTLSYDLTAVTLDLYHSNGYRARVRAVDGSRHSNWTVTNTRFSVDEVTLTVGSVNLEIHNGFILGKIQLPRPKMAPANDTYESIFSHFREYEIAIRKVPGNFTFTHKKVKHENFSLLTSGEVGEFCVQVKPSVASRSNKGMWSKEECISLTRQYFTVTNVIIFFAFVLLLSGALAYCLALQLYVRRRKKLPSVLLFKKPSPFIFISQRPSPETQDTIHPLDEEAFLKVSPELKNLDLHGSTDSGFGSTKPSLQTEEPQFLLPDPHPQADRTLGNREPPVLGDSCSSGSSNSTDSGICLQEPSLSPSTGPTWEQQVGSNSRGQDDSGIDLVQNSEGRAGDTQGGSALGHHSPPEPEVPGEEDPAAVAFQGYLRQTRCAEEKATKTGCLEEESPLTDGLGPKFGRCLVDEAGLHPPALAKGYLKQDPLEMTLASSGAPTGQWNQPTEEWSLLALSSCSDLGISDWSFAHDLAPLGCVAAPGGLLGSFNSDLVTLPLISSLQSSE
T1 sequence 2: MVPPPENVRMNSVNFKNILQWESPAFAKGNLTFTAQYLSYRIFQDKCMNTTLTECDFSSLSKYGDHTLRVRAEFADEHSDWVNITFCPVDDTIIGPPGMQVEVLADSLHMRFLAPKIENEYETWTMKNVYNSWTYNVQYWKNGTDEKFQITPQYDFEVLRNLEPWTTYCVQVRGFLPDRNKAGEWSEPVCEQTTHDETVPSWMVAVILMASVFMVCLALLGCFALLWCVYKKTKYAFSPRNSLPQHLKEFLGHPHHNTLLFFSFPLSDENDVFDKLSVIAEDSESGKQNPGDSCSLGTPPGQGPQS
Experiment: cell-based or functional assay
REPORTED ENDPOINT: Abs 630 (100 nM)
Please report the result as a number followed by the unit.

Sample IL10R binding molecule of SEQ ID NO: 279 (bispecific antibody) QVQLQESGGGSVQAGGSLRLSCAVSGYAYSTYCMGWFRQAPGKEREGVAAIDSGGSTSYADSVKGRFTISKDNAKNTLYLRMNSLKPEDTAMYYCAAVPPPPDGGSCLFLGPEIKVSKADFRYWGQGTQVTVSSGGGSQVQLQESGGGSVQAGGSLRLSCAASRYTYNSYCMGWFRQAPGKEREGVATIDSDGMTRYADSVKGRFTISKDNAKNTLYLQMNSLKPEDTAMYYCAADADCTIAAMTTNPLGQGTQVTVSSASHHHHHH ; Abs 630 (100 nM) observed: 0.39 Abs 630

Sample IL10R binding molecule of SEQ ID NO: 285 (bispecific antibody) QVQLQESGGGSVQAGGSLRLSCTVSGYTYSSNCMGWFRQAPGKEREGVATIYTGGGNTYYADSVKGRFTISQDNAKNTVYLQMNNLKPEDTAMYYCAAEPLSRVYGGSCPTPTFDYWGQGTQVTVSSGGGSQVQLQESGGGSVQAGGSLRLSCAASGYTYSSYCMGWFRQAPGKEREGVAHIDSDGSTSYADSVKGRFTISKDNAKNTLYLQMNSLKPEDTAMYYCAADPIPGPGYCDGGPNKYWGQGTQVTVSSASHHHHHH ; Abs 630 (100 nM) observed: 0.39 Abs 630
